System: SK-MEL-5 melanoma
Experiment: NCI tumour cell line growth inhibition, 48 h; in the data active means GI50 below about 0.43 µM; inactive means the rest
Outcome codes: active, inactive

input_smiles: O=C(c1nn(-c2ccc(Cl)cc2)cc1O)n1nc(C(F)(F)F)cc1-c1ccccc1
class_name: inactive
--
input_smiles: CCSc1ccc([C@@H]2[C@@H](N)C(=O)N2c2cc(OC)c(OC)c(OC)c2)cc1
class_name: active
--
input_smiles: COc1ccc(-c2nnc(SCC(=O)Nc3ccc(C(=O)/C=C/c4cc(OC)c(OC)c(OC)c4)cc3)n2-c2ccccc2)cc1OC
class_name: inactive
--
input_smiles: O=C(Cn1c(C(=O)c2ccc(Cl)cc2)nc(-c2ccccc2)c1-c1ccccc1)c1ccc(Cl)cc1
class_name: inactive
--
input_smiles: O=C(Nc1ccc(Nc2ccncc2)cc1)c1ccc(Nc2ccnc3ccc([N+](=O)[O-])cc23)cc1[N+](=O)[O-]
class_name: inactive
--
input_smiles: COc1ccc(-n2cc(-c3cc(OC)c(OC)c(OC)c3)[nH]c2=S)cc1Cl
class_name: inactive
--
input_smiles: Nc1nc(-c2ccc(Cl)cc2)cc(-c2ccc(Cl)cc2)c1-c1nc2ccccc2o1
class_name: inactive
--
input_smiles: COc1ccc2c(c1)[nH]c(=O)c1c3cc(OC)c(OC)cc3cn21
class_name: active
--
input_smiles: O=C(Oc1ccccc1Cl)c1ccccc1Nc1cccc(C(F)(F)F)c1
class_name: inactive
--
input_smiles: CC(=O)Nc1ccc(-c2csc(Nc3cccc(-c4csc(-c5ccccc5)n4)c3)n2)cc1
class_name: inactive
--
input_smiles: CCCCCCCCCCC[C@@H](C[C@H]1OC(=O)[C@H]1CCCCCC)OC(=O)[C@@H](CC(C)C)NC=O
class_name: inactive
--
input_smiles: COc1ccc(/C=C\c2cc(OC)c(OC)c(OC)c2)cc1OCC(=O)Nc1nc2ccccc2s1
class_name: active
--
input_smiles: O=C(Cc1csc2nc(-c3ccc(Br)cc3)cn12)N/N=C/c1ccc(Cl)cc1Cl
class_name: inactive
--
input_smiles: COc1cc(C(=O)O/N=C(\N)Cc2cccc3ccccc23)cc(OC)c1OC
class_name: inactive
--
input_smiles: Fc1ccc([C@@H]2CCNC[C@H]2COc2ccc3c(c2)OCO3)cc1
class_name: inactive
--
input_smiles: O=C(NO)c1ccc(Cn2c(=O)n(-c3ccccc3)c(=O)c3ccccc32)cc1
class_name: inactive
--
input_smiles: CNC(=O)c1cc(Oc2ccc3nc(N[C@@H]4CCCC[C@H]4O)sc3c2)ccn1
class_name: inactive
